Test system: KG-1
Assay: Antiproliferative activity against human KG-1 cells assessed as inhibition of cell growth incubated for 72 hrs by MTT assay
Type: functional, cell-based
Conditions: KG-1, 72 h
log10(IC50) values for the molecules below.
Attribute Measured: log10(IC50) (log10 of the value in µM)

>>> df
                          structure_notation  attribute_measured  value_measured
 0              Cc1nccnc1C(=O)/C=C/c1ccccc1F         log10(IC50)            0.73
 1            CCc1nccnc1C(=O)/C=C/c1ccccc1Br         log10(IC50)            0.55
 2      CCN(CC)c1ccc(/C=C/C(=O)c2nccnc2C)cc1         log10(IC50)            0.85
 3           N#Cc1cccc(/C=C/C(=O)c2cnccn2)c1         log10(IC50)            0.77
 4       CCc1nccnc1C(=O)/C=C/C=C/c1ccc(F)cc1         log10(IC50)            0.84
 5            O=C(/C=C/c1cccc(Br)c1)c1cnccn1         log10(IC50)            1.37
 6               Cc1nccnc1C(=O)/C=C/c1ccccc1         log10(IC50)            0.21
 7          COc1ccc(/C=C/C(=O)c2cnccn2)cc1OC         log10(IC50)            0.68
 8           N#Cc1ccc(/C=C/C(=O)c2cnccn2)cc1         log10(IC50)            1.20
 9          CCc1nccnc1C(=O)/C=C/c1ccc(Br)cc1         log10(IC50)            0.97
10   CCc1nccnc1C(=O)/C=C/c1ccc(-c2ccccc2)cc1         log10(IC50)            1.35
11  CCc1nccnc1C(=O)/C=C/c1ccc2c(c1)OC(F)(F)O2         log10(IC50)            0.96
12            COc1ccc(/C=C/C(=O)c2cnccn2)cc1         log10(IC50)            0.94
13           Cc1nccnc1C(=O)/C=C/c1ccc(Cl)cc1         log10(IC50)            1.02
14              CCc1nccnc1C(=O)/C=C/c1ccccc1         log10(IC50)            0.57
15             Cc1nccnc1C(=O)/C=C/c1ccccc1Br         log10(IC50)            0.44
16            O=C(/C=C/c1ccc(Br)cc1)c1cnccn1         log10(IC50)            1.31
17            CSc1ccc(/C=C/C(=O)c2cnccn2)cc1         log10(IC50)            0.75
18          CCc1nccnc1C(=O)/C=C/C=C/c1ccccc1         log10(IC50)            1.28
19      CCc1nccnc1C(=O)/C=C/c1ccc(OC)c(OC)c1         log10(IC50)            0.98
